Source: patent US10030006B2

Each item that follows carries a reported IC50.
tested on: MRC5; assay: Anti-proliferation assay, MRC5 (normal); assay type: cell-based; details: Homo sapiens, MRC5, Table 6, substituted phenyl ureas
Give the number first and the unit second.

Consider the reported IC50 for these compounds:
>  <Query Smiles>
Cc1cccc(NC(=O)Nc2cc3ccc(OC4CCN(C)CC4)c(C)c3oc2=O)c1

>  <IC50>
4.3 µM

$$$$
>  <Query Smiles>
CCc1cccc(NC(=O)Nc2cc3ccc(OC4CCN(C)CC4)c(C)c3oc2=O)c1

>  <IC50>
5.3 µM

$$$$
>  <Query Smiles>
Cc1c(OC2CCN(C)CC2)ccc2cc(NC(=O)Nc3ccc(Cl)c(Cl)c3)c(=O)oc12

>  <IC50>
2.1 µM

$$$$

Supply IC50 value. Item: Cc1ccc(NC(=O)Nc2cc3ccc(OC4CCN(C)CC4)c(C)c3oc2=O)cc1 6.6 µM

----------
Each item that follows carries a reported IC50.
test system: SKBr3 (estrogen receptor negative, Her2 over-expressing breast cancer cells); experiment: Anti-proliferation assay (MTS/PMS, 72 h), SKBr3; type: cell-based; details: Homo sapiens, SK-BR-3; amide versus urea linkage; read-out: IC50 for SKBr3
Write the number in nM without appending the unit.

Consider the reported IC50 for these compounds:
>  <Compound>
Cc1c(OC2CCN(C)CC2)ccc2cc(NC(=O)c3ccccc3)c(=O)oc12 [Compound 21d]

>  <Study System>
SKBr3 (estrogen receptor negative, Her2 over-expressing breast cancer cells)

>  <IC50, nM>
11500

$$$$
>  <Compound>
Cc1c(OC2CCN(C)CC2)ccc2cc(NC(=O)Nc3ccccc3)c(=O)oc12 [H]

>  <Study System>
SKBr3 (estrogen receptor negative, Her2 over-expressing breast cancer cells)

>  <IC50, nM>
770

$$$$

Now turn to the next compound.
Supply IC50 value. Item: CC(C)=CCc1cc(NC(=O)Nc2cc3ccc(OC4CCN(C)CC4)c(C)c3oc2=O)ccc1O [OH] 390

----------
tested on: JMAR; test: Anti-proliferation assay, JMAR; assay type: cell-based; conditions: Table 6, substituted phenyl ureas; HSNCC
Assay Endpoint: IC50

Supply IC50 value. Item: CC(=O)c1ccc(NC(=O)Nc2cc3ccc(OC4CCN(C)CC4)c(C)c3oc2=O)cc1 11.9 µM

----------
Each item that follows carries a reported IC50.
tested on: MDA1986; experiment: Anti-proliferation assay, MDA1986; type: cell-based; conditions: MDA1986; Table 6, substituted phenyl ureas; HSNCC
Write the number in µM without appending the unit.

Consider the reported IC50 for these compounds:
>  <Query Smiles>
Cc1c(OC2CCN(C)CC2)ccc2cc(NC(=O)Nc3cc(Cl)cc(Cl)c3)c(=O)oc12

>  <IC50 / µM>
7.5

$$$$
>  <Query Smiles>
Cc1c(OC2CCN(C)CC2)ccc2cc(NC(=O)Nc3ccc(C(C)(C)C)cc3)c(=O)oc12

>  <IC50 / µM>
0.57

$$$$
>  <Query Smiles>
Cc1c(OC2CCN(C)CC2)ccc2cc(NC(=O)Nc3ccc(-c4ccccc4)cc3)c(=O)oc12

>  <IC50 / µM>
0.85

$$$$
>  <Query Smiles>
Cc1cc(C)cc(NC(=O)Nc2cc3ccc(OC4CCN(C)CC4)c(C)c3oc2=O)c1

>  <IC50 / µM>
0.09

$$$$
>  <Query Smiles>
Cc1ccc(NC(=O)Nc2cc3ccc(OC4CCN(C)CC4)c(C)c3oc2=O)cc1

>  <IC50 / µM>
3.2

$$$$
>  <Query Smiles>
Cc1c(OC2CCN(C)CC2)ccc2cc(NC(=O)Nc3cccc(Cl)c3)c(=O)oc12

>  <IC50 / µM>
1.7

$$$$
>  <Query Smiles>
Cc1c(OC2CCN(C)CC2)ccc2cc(NC(=O)Nc3cccc(Oc4ccccc4)c3)c(=O)oc12

>  <IC50 / µM>
0.57

$$$$
>  <Query Smiles>
Cc1c(OC2CCN(C)CC2)ccc2cc(NC(=O)Nc3ccc(Oc4ccccc4)cc3)c(=O)oc12

>  <IC50 / µM>
6

$$$$

Supply IC50 value. Item: Cc1c(OC2CCN(C)CC2)ccc2cc(NC(=O)Nc3ccc(C#N)cc3)c(=O)oc12 1.62

Supply IC50 value. Item: CC(=O)c1cccc(NC(=O)Nc2cc3ccc(OC4CCN(C)CC4)c(C)c3oc2=O)c1 21

Supply IC50 value. Item: Cc1ccc(NC(=O)Nc2cc3ccc(OC4CCN(C)CC4)c(C)c3oc2=O)cc1C 1.3

Supply IC50 value. Item: Cc1cccc(NC(=O)Nc2cc3ccc(OC4CCN(C)CC4)c(C)c3oc2=O)c1 2.02

Supply IC50 value. Item: Cc1c(OC2CCN(C)CC2)ccc2cc(NC(=O)Nc3ccc(F)cc3)c(=O)oc12 0.01

Supply IC50 value. Item: COc1cc(NC(=O)Nc2cc3ccc(OC4CCN(C)CC4)c(C)c3oc2=O)cc(OC)c1OC 9.1

Supply IC50 value. Item: Cc1c(OC2CCN(C)CC2)ccc2cc(NC(=O)Nc3cccc(C(F)(F)F)c3)c(=O)oc12 0.15
